- System: LXFL 529
- test name: NCI tumour cell line growth inhibition, 48 h
Active and inactive are the calls of the source. Cut-off read from the data, not from the text of the source: active = GI50 up to about 1.1 µM and inactive = higher.
recorded metric: GI50

molecule	GI50
Cc1cccc(C)c1NC(=O)CCC(=O)NNC(=O)c1cc(O)c2ccccc2c1	29.6 µM (inactive)
NS(=O)(=O)c1ccc(NC(=O)c2cccc3c(=O)c4ccccc4[nH]c23)cc1	30.6 µM (inactive)
CC(=O)CCC1(c2ccccc2)OC(=O)C(C#N)=C1c1ccccc1 (stereo unspecified)	59.4 µM (inactive)
CCOC(=O)C(=C=C=C(c1ccccc1)c1ccccc1)C(=O)OCC	16.9 µM (inactive)

q: What value of GI50 has been recorded for this entry: CCOC(=O)CC1=Nc2ccccc2SC1
a: > 100 µM (inactive)

q: Reported GI50 for CCOC1=NC(=O)CC(c2ccccc2)S1 (stereo unspecified) : what is it?
a: > 100 µM (inactive)

q: // lookup GI50 for COc1cc(OC)c(OC)cc1/C=C\c1ccnc2ccccc12
a: 1.45 µM (inactive)

q: Fill in: GI50 of O=C(/C(=C/c1ccccc1)c1ccccc1)N1c2ccccc2CC1c1c[nH]c2ccccc12 (stereo unspecified) is ___
a: 8.3 µM (inactive)

* * *

- System: MDA-MB-231
- test name: NCI tumour cell line growth inhibition, 48 h
Active and inactive are the calls of the source. Rule as the data show it: active = GI50 up to about 1.1 µM and inactive = higher.
recorded metric: GI50

compound	GI50
O=C(O)CSC(CC1(c2ccc(Cl)cc2)NC(=O)CS1)c1ccc(Cl)cc1 (centres undefined)	> 100 µM (inactive)
O/N=C1\Nc2ccccc2OCc2cc(Br)c(Br)cc2COc2ccccc2N\C1=N/O	14.8 µM (inactive)
CC(C)c1cc(C(C)C)c(B(c2ccccc2)c2ccccc2)c(C(C)C)c1B(c1ccccc1)c1ccccc1	> 100 µM (inactive)

q: May I ask what GI50 has been recorded for CC(C)(CO[C@H]1C[C@H]2CC[C@@]1(C)C2(C)C)[N+](=O)[O-] ?
a: 18.1 µM (inactive)

q: What value of GI50 has been recorded for this entry: O=C(O)CCN1C(=S)CSC1=S
a: > 100 µM (inactive)

q: Request the reported GI50 associated with CN(C)CCn1c(=O)c2ccc(NCCCN(C)CCCNc3ccc4c(=O)n(CCN(C)C)c(=O)n5c6ccccc6c(=O)c3c45)c3c(=O)c4ccccc4n(c1=O)c23
a: < 0.0405 µM (active)

q: Please report the recorded GI50 for CCc1[nH]c(=O)nc(N)c1-c1ccc(N2CCCCC2)c([N+](=O)[O-])c1 .
a: 98.4 µM (inactive)

q: Field request: GI50 | item: Cc1nc2ccc(S(=O)(=O)NS(=O)(=O)c3ccc(-c4ccccc4)cc3)cc2c(=O)n1NS(=O)(=O)c1ccc(-c2ccccc2)cc1
a: > 100 µM (inactive)

q: Look up GI50 for this compound: COc1nc2c(c(=O)[nH]1)N=C(c1ccc(Cl)cc1)CC(c1ccccc1)N2 (centres undefined)
a: 23.8 µM (inactive)

* * *

Recorded GI50 for the following molecules
- Tested on: SW-620
- test name: NCI tumour cell line growth inhibition, 48 h
Calls of active or inactive are those of the source. Rule as the data show it: active = GI50 up to about 1.1 µM and inactive = higher.

molecule	GI50
CCOC(=O)Cc1[nH]c(C(=O)c2ccccc2)cc1C(=O)c1ccccc1	> 100 µM (inactive)
CC(=O)NC1=C(C)C(=O)c2c(nc3n2CC[C@H]3OC(C)=O)C1=O	1.53 µM (inactive)
O=C(NCCCOC(=O)CCCCCCCCC(=O)OCCCNC(=O)NC(=O)c1c[nH]c(=O)[nH]c1=O)NC(=O)c1c[nH]c(=O)[nH]c1=O	> 100 µM (inactive)
CCOC(=O)c1csc(NC(=O)C(C)N2CCCC2)n1 (stereo not given)	> 100 µM (inactive)

q: # input molecule: C1CCNCC1.Oc1ncnc2[nH]cc(CN3CCCCC3)c12 ; wanted: its GI50
a: 38 µM (inactive)

* * *

- Test system: IGROV-1
- test name: NCI tumour cell line growth inhibition, 48 h
The source made the active and inactive calls. No stated cut-off is given here; in the data, active = GI50 up to about 1.1 µM and inactive = higher.
Form field: GI50 (one value per entry).

molecule	data value
Cc1ccc(P(c2ccc(C)cc2)c2ccc(C)cc2)cc1	18.8 µM (inactive)
Cc1sc2ccccc2[n+]1CCC(=O)O	> 100 µM (inactive)
O=C(C/C=C/c1ccccc1)c1ccccc1	23.5 µM (inactive)
CCC1(CC)C(=O)OC(=O)C1(CC)CC	> 100 µM (inactive)
CC1CCC2(OCCO2)[C@]2(C)CC(O)C(=O)C=C12 (stereo partly specified)	> 100 µM (inactive)
C[C@]12C[C@@H](c3ccccc3)Nc3ccccc3N1C(c1ccccc1)=NO2	38.1 µM (inactive)

Please examine the following record next.
q: # lookup: GI50 of CC1CC(NN)=Nc2ccccc2N1 (stereo unspecified)
a: > 100 µM (inactive)

* * *

- Test system: DU-145
- test name: NCI tumour cell line growth inhibition, 48 h
Calls of active or inactive are those of the source. Rule as the data show it: active = GI50 up to about 1.1 µM and inactive = higher.
Permitted responses: active, inactive

Take a look at these entries with their results.
molecule	test target	assigned class
CCOC(=O)NNC(=O)NCCNC(=O)NNC(=O)OCC	DU-145	inactive
CC1(C)[C@@H](Cn2cnc3c(N)ncnc32)CC[C@@]1(C)CO	DU-145	inactive
C[C@]12C[C@@H](c3ccccc3)Nc3ccccc3N1C(c1ccccc1)=NO2	DU-145	inactive

q: What outcome does the record of this test show for CC(C)(C)c1cc(C(=O)/C=C/C=C/c2ccccc2)cc(C(C)(C)C)c1O ?
a: inactive

q: Please let me know the test result on file for CC(C)(C)C(=O)c1c(O)c2ccccc2c2ccccc2c1=O .
a: inactive

q: Entry O=c1cnn(C2OC(CO)C(O)C(F)C2O)c(=O)[nH]1 (centres undefined) : call = ?
a: inactive

q: Call for entry O=C1/C(=C/c2ccccc2)CCc2ccc([N+](=O)[O-])cc21 :
a: inactive

q: Which outcome did this test record for the molecule CCOC(=O)c1c(N2CCCC2)[nH]c(=O)c(C(c2cccs2)c2c(O)c(C(=O)OCC)c(N3CCCC3)[nH]c2=O)c1O ?
a: inactive

q: What did the test return for CC(=O)O/N=C/c1c2ccccc2cc2ccccc12 ?
a: inactive

q: // outcome(item) with item = Clc1ccc(/C=C/c2nc(-c3ccc(Cl)cc3)cn3c2nc2ccccc23)cc1
a: inactive

* * *

- Tested on: NCI/ADR-RES
- test name: NCI tumour cell line growth inhibition, 48 h
The source made the active and inactive calls. Cut-off read from the data, not from the text of the source: active = GI50 up to about 1.1 µM and inactive = higher.
recorded metric: GI50

Solved cases below.
compound	recorded metric	data value
CC(C)CC(=O)NC(Nc1ccc(S(=O)(=O)Nc2ncccn2)cc1)(C(F)(F)F)C(F)(F)F	GI50	> 100 µM (inactive)
OCc1ccc2c(c1)CC1(Cc3ccc(/C=N/O)cc3C1)C2 (stereo not drawn)	GI50	3.32 µM (inactive)
CC1CC(NN)=Nc2ccccc2N1 (stereo not drawn)	GI50	> 100 µM (inactive)
NS(=O)(=O)c1nnc(NC(=O)C23CC4CC(CC(C4)C2)C3)s1	GI50	> 100 µM (inactive)
S=C(Nc1ccc2cn[nH]c2c1)Nc1ccc2cn[nH]c2c1	GI50	> 100 µM (inactive)
CCC[C@H](O)[C@@H](CNc1cc(NC(C)=O)nc(NC(C)=O)n1)N(Cc1ccccc1)Cc1ccccc1	GI50	19.3 µM (inactive)
c1ccc(/N=C2\c3ccccc3CN2c2ccccc2)cc1	GI50	> 100 µM (inactive)

q: Please report the recorded GI50 for CC(=O)NNc1nc(C)c(C(/C=C/c2ccc3c(c2)OCO3)=N/Nc2ccccc2)s1 .
a: > 100 µM (inactive)

* * *

- Tested on: DU-145
- test name: NCI tumour cell line growth inhibition, 48 h
Activity calls are given as the source filed them. Rule as the data show it: active = GI50 up to about 1.1 µM and inactive = higher.
A collection of compounds and their measured GI50

q: What does the record list as GI50 for CC(=O)NC1=C(C)C(=O)c2c(nc3n2CC[C@H]3OC(C)=O)C1=O ?
a: 15.9 µM (inactive)

q: For CCOc1cc(C2CC(c3ccc(NS(=O)(=O)c4cc([N+](=O)[O-])ccc4C)cc3)=NN2)ccc1O (stereo not drawn) , what is its reported GI50?
a: 36.6 µM (inactive)

q: GET /values?readout=GI50&item= COC(=O)C1=C(OC(=O)/C=C/c2ccc(Cl)cc2)C(C(=O)OC)[C@]2(O)[C@@H](C(=O)OC)[C@H]1C[C@@H](c1ccccc1)[C@@H]2C(=O)OC (stereo partly drawn)
a: 7.31 µM (inactive)

q: Form field: reported GI50 of O=S(=O)(O)Nc1ccc(-c2nc3ccccc3s2)cc1Cl
a: > 100 µM (inactive)

q: May I ask what GI50 has been recorded for O/N=C1\Nc2ccccc2OCc2cc(Br)c(Br)cc2COc2ccccc2N\C1=N/O ?
a: 13.6 µM (inactive)

q: Returns the measured GI50 for the input compound. Input: CC(=O)Nc1ccc(NS(=O)(=O)c2ccc3nc(C)n(NS(=O)(=O)c4ccc(NC(C)=O)cc4)c(=O)c3c2)cc1
a: > 100 µM (inactive)

q: Which GI50 is listed for C=C1C(=O)C23C(O)C1CC[C@H]2C12CCCC(C)(COC(C)=O)[C@H]1[C@H](O)[C@]3(O)OC2 (stereo partly drawn) ?
a: 4.3 µM (inactive)

q: Quick one: GI50 for O=C(N/N=C(COc1cccc(Cl)c1)\N=C\c1ccncc1)c1ccncc1 ?
a: > 100 µM (inactive)
